- Tested on: COLON cancer cell lines
- experimental conditions: log of concentration causing 50% lethality; arithmetic average of six to eight colon cell lines
endpoint name: Log LC50 (moles/liter)
One number for each entry, in moles/liter.

{"columns": ["compound", "Log LC50, moles/liter"],
 "data": [
  ["CC1=C(N2CC2)C(=O)c2c([nH]c(CO)c2C)C1=O [Indole 1b]", "−4.32"],
  ["CC1=C(N2CC2)C(=O)c2[nH]c3c(c2C1=O)CCC3O (centres unmarked) [Cyclopent[b]indole 3b]", "−4.45"],
  ["COC1CCc2c1[nH]c1c2C(=O)C(C)=C(N2CC2)C1=O (centres unmarked) [Cyclopent[b]indole 3d]", "−4.318"]
]}

--- query ---
Look up Log LC50: CC(=O)OC1CCc2c1[nH]c1c2C(=O)C(C)=C(N2CC2)C1=O (centres unmarked) [Cyclopent[b]indole 3c]
−4.85

###

Could you please report measured Log LC50 for the items listed next?
- System: PROSTATE cancer cell lines
- experimental conditions: log of concentration causing 50% lethality; arithmetic average of six to eight prostate cell lines
Answers are plain numbers, in moles/liter.

{"columns": ["compound", "endpoint name", "recorded value"],
 "data": [
  ["COC1CCc2c1[nH]c1c2C(=O)C(C)=C(N2CC2)C1=O (stereo not shown) [Cyclopent[b]indole 3d]", "Log LC50", "−4.46"],
  ["CC1=C(N2CC2)C(=O)c2[nH]c(CO)c(C)c2C1=O [Indole 2b]", "Log LC50", "−4.2"],
  ["CC(=O)OC1CCc2c1[nH]c1c2C(=O)C(C)=C(N2CC2)C1=O (stereo not shown) [Cyclopent[b]indole 3c]", "Log LC50", "−4.63"],
  ["CC(=O)OC1CCc2c3c(n(C(C)=O)c21)C(=O)C(N1CC1)=C(C)C3=O (stereo not shown) [Cyclopent[b]indole 14]", "Log LC50", "−4.71"],
  ["CC1=C(N2CC2)C(=O)c2[nH]c3c(c2C1=O)CCC3O (stereo not shown) [Cyclopent[b]indole 3b]", "Log LC50", "−4.5"],
  ["CC1=C(N2CC2)C(=O)c2c([nH]c(CO)c2C)C1=O [Indole 1b]", "Log LC50", "−4.78"],
  ["CC1=C(N2CC2)C(=O)c2[nH]c3c(c2C1=O)CCC3=O [Cyclopent[b]indole 3e]", "Log LC50", "−4.8"]
]}

Tell me reported Log LC50 for CC(=O)OCc1[nH]c2c(c1C)C(=O)C(N1CC1)=C(C)C2=O [Indole 1c] , tested with PROSTATE cancer cell lines.
−5.01

###

- Test system: LEUKEMIA cancer cell lines
- experimental conditions: log of concentration causing 50% lethality; arithmetic average of six to eight leukemia cell lines
Could you please report measured Log LC50 for the items listed next?

Worked examples follow.
{"columns": ["compound", "Log LC50"],
 "data": [
  ["CC1=C(N2CC2)C(=O)c2c([nH]c(CO)c2C)C1=O", ">−4 moles/liter"],
  ["CC(=O)OCc1[nH]c2c(c1C)C(=O)C(N1CC1)=C(C)C2=O", ">−4 moles/liter"],
  ["CC1=C(N2CC2)C(=O)c2[nH]c(CO)c(C)c2C1=O", ">−4 moles/liter"],
  ["CC(=O)OC1CCc2c1[nH]c1c2C(=O)C(C)=C(N2CC2)C1=O (stereo not shown) [Cyclopent[b]indole 3c]", "−4.3 moles/liter"],
  ["CC1=C(N2CC2)C(=O)c2c([nH]c(C)c2C)C1=O", ">−4 moles/liter"]
]}

Below are some compounds; for each one, tell me its Log LC50.
1. COC1CCc2c1[nH]c1c2C(=O)C(C)=C(N2CC2)C1=O (stereo not shown) [Cyclopent[b]indole 3d]
2. CC(=O)OCc1[nH]c2c(c1C)C(=O)C(C)=C(N1CC1)C2=O
3. CC1=C(N2CC2)C(=O)c2[nH]c3c(c2C1=O)CCC3=O [Cyclopent[b]indole 3e]
4. CC(=O)OC1CCc2c3c(n(C(C)=O)c21)C(=O)C(N1CC1)=C(C)C3=O (stereo not shown) [Cyclopent[b]indole 14]
5. CC1=C(N2CC2)C(=O)c2[nH]c3c(c2C1=O)CCC3O (stereo not shown) [Cyclopent[b]indole 3b]

["−4.06 moles/liter", ">−4 moles/liter", ">−4 moles/liter", ">−4 moles/liter", "−4.06 moles/liter"]

Sourced from patent US6846840B2
